Target: ACAT2 (Mus musculus, UniProt O88908)
Sequence (O88908 1-525): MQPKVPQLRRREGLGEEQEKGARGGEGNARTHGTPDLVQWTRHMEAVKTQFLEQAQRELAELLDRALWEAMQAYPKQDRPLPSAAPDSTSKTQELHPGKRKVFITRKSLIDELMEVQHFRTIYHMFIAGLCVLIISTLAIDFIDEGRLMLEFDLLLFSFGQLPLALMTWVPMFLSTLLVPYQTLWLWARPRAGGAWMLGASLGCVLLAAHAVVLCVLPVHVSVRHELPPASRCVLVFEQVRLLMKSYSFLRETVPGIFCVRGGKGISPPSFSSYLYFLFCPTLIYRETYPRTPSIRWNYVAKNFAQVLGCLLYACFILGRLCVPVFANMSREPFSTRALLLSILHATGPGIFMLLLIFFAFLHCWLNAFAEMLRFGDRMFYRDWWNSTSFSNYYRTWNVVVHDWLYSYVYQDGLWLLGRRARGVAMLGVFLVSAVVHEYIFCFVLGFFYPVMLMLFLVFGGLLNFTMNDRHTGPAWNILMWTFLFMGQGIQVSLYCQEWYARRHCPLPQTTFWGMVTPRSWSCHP
Measure: IC50

CC(=O)OCC(COC(C)=O)[C@@H]1C[C@H](OC(=O)c2ccc(C#N)cc2)[C@@]2(C)Oc3cc(-c4cccnc4)oc(=O)c3[C@H](O)[C@@H]2C1(C)C = < 0.5 µM
CC(=O)OCC(COC(C)=O)[C@@H]1C[C@H](OC(C)=O)[C@@]2(C)Oc3cc(-c4cccnc4)oc(=O)c3[C@H](O)[C@@H]2C1(C)C = 10 to 100 µM
CC(=O)O[C@H]1C[C@@H](C(C)C)C[C@H]2[C@H](O)c3c(cc(-c4cccnc4)oc3=O)O[C@]12C = 10 to 100 µM
CC(C)[C@@H]1C[C@H](OC(=O)c2ccc(C#N)cc2)[C@@]2(C)Oc3cc(-c4cccnc4)oc(=O)c3[C@H](O)[C@@H]2C1(C)C = < 0.5 µM

Now for another entry.
Lookup: Quick one: IC50 for CC(=O)O[C@H]1C[C@@H](C(C)C)C[C@H]2C(O)c3c(cc(-c4ccccc4)oc3=O)O[C@]12C (stereo in doubt) ?
Found: 10 to 100 µM
